Data provenance: patent US20240228562A1

- measured on: T1, Human CTGF with a human IgG1 Fc Tag (Homo sapiens, UniProt P29279, H83D)
- T1 construct: purchased Creative Biomart
- measurement notes: SPR epitope analysis (simultaneous binding)
- condition: SPR, mixed and injected simultaneously at 750 nM or 1000 nM
parameter: Simultaneous binding with SEQ ID NO: 29

molecule: SEQ ID NO: 7: parent CTGF-binding hNGAL lipocalin mutein (protein, lipocalin mutein) QDSTSDLIPAPPLSKVPLQQNFQDNQFHGKWYVVGLAGNYGLRTDKRPSKMFATIYELKEDKSYDVTSVRFEQERCHYTIRTFVPGSQPGEFTTGSIKSRPGQTSSLVRVVSTNYNQHAMVFFKSVIQNREYFAITLYGRTKELTSELKENFIRFSKSLGLPENHIVFPVPIDQCIDG
data value: yes
